Please respond with reported inhibition at 3 µM for every item in the list.
# Test system: Macrophage
# MEASUREMENT_DESCRIPTION: Inhibition of nitric oxide production in lipopolysaccharide-activated ddY mouse macrophages at 3 uM relative to control
# Format: functional
Numbers only, in %.

Worked cases, answers included:
COc1cc([C@H]2c3cc(O)c(OC)cc3C[C@@H](CO)[C@@H]2CO)ccc1O | -0.6
COc1cc(C[C@@H](CO)[C@H](CO)Cc2ccc(O)c(OC)c2)ccc1O [(+)-SECOISOLARICIRESINOL] | -7.3
COc1cc(C[C@H]2CO[C@H](c3ccc(O)c(OC)c3)[C@H]2CO)ccc1O | 3
CC(=O)OC[C@@]12CC[C@@]3(C)[C@H]4C(=CC[C@]3(C)[C@H]1[C@H](O)C[C@H]2C(C)C)[C@@]1(C)C[C@@H](O)[C@H](O)C(C)(C)[C@@H]1C[C@@H]4O | 5.3

Please state inhibition at 3 µM for every compound in the list that follows.
1. CC(C)[C@@H]1C[C@@H](O)[C@H]2[C@@]1(CO)CC[C@@]1(C)[C@H]3C(=CC[C@]21C)[C@@]1(C)C[C@@H](O)[C@H](O)C(C)(C)[C@@H]1C[C@@H]3O
2. CC(=O)OC[C@@]12CC[C@@]3(C)[C@H]4C(=CC[C@]3(C)[C@H]1[C@H](OC(C)=O)C[C@H]2C(C)C)[C@@]1(C)C[C@@H](OC(C)=O)[C@H](OC(C)=O)C(C)(C)[C@@H]1C[C@@H]4OC(C)=O

(A)
[7.9, 9.5]

Hi team, please reply with inhibition at 3 µM for each item in this list.
1. CC(=O)OC[C@@]12CC[C@@]3(C)[C@H]4C(=CC[C@]3(C)[C@H]1[C@H](O)C[C@H]2C(C)C)[C@@]1(C)CCC(=O)C(C)(C)[C@@H]1C[C@@H]4O
2. CC(=O)OC[C@@]12CC[C@@]3(C)[C@H]4C(=CC[C@]3(C)[C@H]1[C@H](OC(C)=O)C[C@H]2C(C)C)[C@@]1(C)CC[C@H](OC(C)=O)C(C)(C)[C@@H]1C[C@@H]4OC(C)=O
3. CC(=O)OC[C@@]12CC[C@@]3(C)[C@H]4C(=CC[C@]3(C)[C@H]1[C@H](OC(C)=O)C[C@H]2C(C)C)[C@@]1(C)C[C@@H](OC(C)=O)C(=O)C(C)(C)[C@@H]1C[C@@H]4OC(C)=O
4. CC(C)[C@@H]1C[C@@H](O)[C@H]2[C@@]1(CO)CC[C@@]1(C)[C@H]3C(=CC[C@]21C)[C@@]1(C)CCC(=O)C(C)(C)[C@@H]1C[C@@H]3O

(A)
[3.7, 10.6, 7.3, -9.7]

----------
# System: Macrophage
# MEASUREMENT_DESCRIPTION: Inhibition of nitric oxide production in lipopolysaccharide-activated ddY mouse macrophages at 3 uM relative to control
# Type: functional
MEASUREMENT_TYPE: inhibition at 3 µM (%)
One number for each entry, in %.

CC(C)[C@@H]1C[C@@H](O)[C@H]2[C@@]1(CO)CC[C@@]1(C)[C@H]3C(=CC[C@]21C)[C@@]1(C)CC[C@H](O)C(C)(C)[C@@H]1C[C@@H]3O | 4.2
Cc1c(O)cc2c(c1O)C(=O)c1ccc(O)cc1C2=O | 7.9
COc1cc(C(=O)O)ccc1O | 16.2

Now for another entry.
(Q) Please report the recorded inhibition at 3 µM for `CC(=O)OC[C@@]12CC[C@@]3(C)[C@H]4C(=CC[C@]3(C)[C@H]1[C@H](O)C[C@H]2C(C)C)[C@@]1(C)CC[C@H](O)C(C)(C)[C@@H]1C[C@@H]4O` .
(A) 11.1
